Give measured EC50 for each item. Keep answers brief.
- Tested on: GFP-expressing Zaire Ebolavirus Mayinga-GFP
- methodNotes: microbe, parasite or virus in culture
- Type: cell-based
- experimentalContext: HeLa, read-out: Activity (Biological activity, EC50)

// worked examples, EC50 included
- smilesStructure: "Cc1cccc(/C=N/Nc2cc(N3CCOCC3)nc(OCc3ncc(Cl)cn3)n2)c1"
  val: "< 1000 nM"
- smilesStructure: "Cc1cccc(/C=N/Nc2cc(C3CCOCC3)nc(OCCc3ccccn3)n2)c1"
  val: "> 50000 nM"

Need EC50 for each of these compounds.
1. Cc1ccc(/C=N/Nc2cc(N3CCOCC3)nc(OCCc3ccccn3)n2)cc1
2. Cc1cccc(/C=N/Nc2cc(N3CCSCC3)nc(OCCc3ccccn3)n2)c1

["< 1000 nM", "1000 to 50000 nM"]

###

- Test system: GFP-expressing Zaire Ebolavirus Mayinga-GFP
- methodNotes: microbe, parasite or virus in culture
- Format: cell-based
- experimentalContext: HeLa, read-out: Activity (Biological activity, EC50)
observable: EC50

- compound: "Cc1cccc(/C=N/Nc2cc(N3CCOCC3)nc(OCc3nccc(C)n3)n2)c1"
  EC50: "< 1000 nM"

Need EC50 for each of these compounds.
1. Cc1cccc(/C=N/Nc2cc(N3CCOCC3)nc(OC(C)c3ncccn3)n2)c1 (stereo not shown)
2. C(=N\Nc1cc(N2CCOCC2)nc(OCCc2ccccn2)n1)/c1ccncc1
3. C/C(=N\Nc1cc(N2CCOCC2)nc(OCCc2ccccn2)n1)c1cccc(C)c1
4. Cc1cccc(/C=N/Nc2cc(N3CCOCC3)nc(-c3cccc(-c4ccccn4)c3)n2)c1
5. Cc1cccc(/C=N/Nc2cc(N3CCOCC3)nc(OCCc3ccc(N4CCOCC4)cn3)n2)c1
6. Cc1cccc(/C=N/Nc2cc(N3CCS(=O)(=O)CC3)nc(OCCc3ccccn3)n2)c1
7. Cc1cccc(/C=N/Nc2cc(N3CCOCC3)nc(Oc3ccc4nc(Cl)ccc4c3)n2)c1

< 1000 nM
> 50000 nM
< 1000 nM
1000 to 50000 nM
> 50000 nM
> 50000 nM
< 1000 nM

Need EC50 for each of these compounds.
1. Cc1cccc(/C=N/Nc2cc(N3CCOCC3)nc(Oc3ccc4ccccc4c3)n2)c1
2. Cc1cccc(/C=N/Nc2cc(N3CCOCC3)nc(OCc3nccc(C(F)(F)F)n3)n2)c1
3. CCCN(CCC)c1cc(N/N=C/c2cccc(C)c2)nc(OCCc2ncccn2)n1

1. < 1000 nM
2. < 1000 nM
3. > 50000 nM

###

- Tested on: GFP-expressing Zaire Ebolavirus Mayinga-GFP
- methodNotes: microbe, parasite or virus in culture
- Type: cell-based
- experimentalContext: HeLa, read-out: Activity (Biological activity, EC50)
pEC50: −log10 of the molar value.
observable: pEC50

// worked examples, pEC50 included
- smilesStructure: "Cc1cccc(/C=N/Nc2cc(N3CCOCC3)nc(OCCc3ccc(N)nc3)n2)c1"
  targetOfAssay: "GFP-expressing Zaire Ebolavirus Mayinga-GFP"
  pEC50: "< 4.30"
- smilesStructure: "Cc1cccc(/C=N/Nc2cc(N3CCOCC3)nc(OCC(F)(F)c3ccccc3)n2)c1"
  targetOfAssay: "GFP-expressing Zaire Ebolavirus Mayinga-GFP"
  pEC50: "4.30 to 6.00"
- smilesStructure: "FC(F)(F)c1cccc(/C=N/Nc2cc(N3CCOCC3)nc(OCCc3ccccn3)n2)c1"
  targetOfAssay: "GFP-expressing Zaire Ebolavirus Mayinga-GFP"
  pEC50: "> 6.00"

Would you kindly look at the next entry?
Using the record for Cc1cccc(/C=N/Nc2cc(N3CCOCC3)nc(OCc3ccccc3)n2)c1 , report its pEC50.
> 6.00

###

- System: GFP-expressing Zaire Ebolavirus Mayinga-GFP
- methodNotes: microbe, parasite or virus in culture
- Assay type: cell-based
- experimentalContext: HeLa, read-out: Activity (Biological activity, EC50)
pEC50: −log10 of the molar value.
observable: pEC50

// worked examples, pEC50 included
- compound: "COc1c(N/N=C/c2cccc(C)c2)nc(OCCc2ccccn2)nc1N1CCOCC1 [Compound 31]"
  observable: "pEC50"
  val: "4.30 to 6.00"
- compound: "Cc1cccc(/C=N/Nc2cc(N3CCOCC3)nc(Oc3ccc4nccc(Cl)c4c3)n2)c1 [Compound 63]"
  observable: "pEC50"
  val: "> 6.00"
- compound: "Cc1cccc(/C=N/Nc2cc(N3CCOCC3)nc(Oc3ccccn3)n2)c1 [Compound 25]"
  observable: "pEC50"
  val: "> 6.00"
- compound: "Cc1cccc(/C=N/Nc2cc(N3CCOCC3)nc(OCCc3ccncn3)n2)c1 [Compound 29]"
  observable: "pEC50"
  val: "4.30 to 6.00"
- compound: "Cc1cccc(/C=N/Nc2cc(N3CCN(C)CC3)nc(OCCc3ccccn3)n2)c1 [Compound 42]"
  observable: "pEC50"
  val: "< 4.30"
- compound: "CS(=O)(=O)c1cccc(/C=N/Nc2cc(N3CCOCC3)nc(OCCc3ccccn3)n2)c1 [Compound 61]"
  observable: "pEC50"
  val: "< 4.30"
- compound: "CCC(Oc1nc(N/N=C/c2cccc(C)c2)cc(N2CCOCC2)n1)c1ncccn1 (stereo not drawn) [Compound 65]"
  observable: "pEC50"
  val: "> 6.00"
- compound: "Cc1cccc(/C=N/N(C)c2cc(N3CCOCC3)nc(OCCc3ccccn3)n2)c1 [Compound 37]"
  observable: "pEC50"
  val: "4.30 to 6.00"

Need pEC50 for each of these compounds.
1. Cc1cccc(/C=N/Nc2cc(N3CCOCC3)nc(Oc3ccc4ncc(F)cc4c3)n2)c1 [Compound 67]
2. Cc1cccc(/C=N/Nc2cc(N3CCOCC3)nc(OCCc3ccccc3)n2)c1 [Compound 20]

> 6.00
4.30 to 6.00

###

Give measured EC50 for each item. Keep answers brief.
- Test system: GFP-expressing Zaire Ebolavirus Mayinga-GFP
- methodNotes: microbe, parasite or virus in culture
- Assay type: cell-based
- experimentalContext: HeLa, read-out: Activity (Biological activity, EC50)

// worked examples, EC50 included
- compound: "Cc1cccc(/C=N/Nc2nc(OCCc3ccccn3)nc(N3CCOCC3)c2C)c1"
  observable: "EC50"
  val: "1000 to 50000 nM"
- compound: "Cc1cccc(/C=N/Nc2cc(N3CCOCC3)nc(OCc3nc4ccccc4c(=O)[nH]3)n2)c1"
  observable: "EC50"
  val: "< 1000 nM"
- compound: "Cc1cccc(/C=N/Nc2cc(N3CCOCC3)nc(OCCc3ccccn3)n2)c1"
  observable: "EC50"
  val: "< 1000 nM"
- compound: "Cc1cccc(/C=N/Nc2cc(N3CCOCC3)nc(OC(C)Cc3ccccn3)n2)c1 (centres unmarked)"
  observable: "EC50"
  val: "< 1000 nM"
- compound: "Cc1cccc(/C=N/Nc2cc(N3CCOCC3)nc(Oc3ccc4cccnc4c3)n2)c1"
  observable: "EC50"
  val: "< 1000 nM"

Need EC50 for each of these compounds.
1. Cc1cccc(/C=N/Nc2nc(OCCc3ccccn3)nc(N3CCOCC3)c2F)c1
2. Cc1cccc(/C=N/Nc2cc(N3CC(C)OC(C)C3)nc(OCCc3ccccn3)n2)c1 (centres unmarked)
3. Cc1cccc(/C=N/Nc2cc(N3CCOCC3)nc(Oc3ccc4nc(C)ccc4c3)n2)c1
4. Cc1cccc(/C=N/Nc2cc(N3CCOCC3)nc(Oc3ccc4ncc(Cl)cc4c3)n2)c1
5. C(=N\Nc1cc(N2CCOCC2)nc(OCCc2ccccn2)n1)/c1ccccc1

["> 50000 nM", "1000 to 50000 nM", "< 1000 nM", "< 1000 nM", "1000 to 50000 nM"]

###

Give measured pEC50 for each item. Keep answers brief.
- Tested on: GFP-expressing Zaire Ebolavirus Mayinga-GFP
- methodNotes: microbe, parasite or virus in culture
- Assay type: cell-based
- experimentalContext: HeLa, read-out: Activity (Biological activity, EC50)
pEC50: −log10 of the molar value.

// worked examples, pEC50 included
- smilesStructure: "C(=N\\Nc1cc(N2CCOCC2)nc(OCCc2ccccn2)n1)/c1cncnc1"
  pEC50: "< 4.30"
- smilesStructure: "Cc1cc(/C=N/Nc2cc(N3CCOCC3)nc(OCCc3ccccn3)n2)ccn1"
  pEC50: "< 4.30"

Need pEC50 for each of these molecules.
1. Cc1cccc(/C=N/Nc2cc(N3CCOCC3)nc(OCC(C)(C)c3ccccc3)n2)c1
2. Cc1cccc(/C=N/Nc2cc(N3CCOCC3)nc(-c3cccc(O)c3)n2)c1
3. Cc1cccc(/C=N/Nc2cc(N3CCOCC3)nc(OCc3nc(C)cc(C)n3)n2)c1

1. 4.30 to 6.00
2. 4.30 to 6.00
3. > 6.00

Need pEC50 for each of these molecules.
1. Cc1cccc(/C=N/Nc2nc(OCCc3ccccn3)nc(N3CCOCC3)c2Cl)c1
2. Cc1cccc(/C=N/Nc2cc(N3CCOCC3)nc(Oc3ccccc3)n2)c1
3. Cc1cccc(/C=N/Nc2cc(N3CCOCC3)nc(Oc3ccc4nccc(C)c4c3)n2)c1

1: < 4.30; 2: > 6.00; 3: > 6.00

These measurements were taken from patent US20180271873A1.
